The reported numbers originate from patent US20190248830A1.

Assay: Oral PK (plasma T) of TSX-002, TSX-007, TSX-009, unformulated T and TU in female beagle dogs, fasted or fed
Type: in vivo
Details: female, beagle, dog, plasma, po, 7.5 mg/kg, oral 7.5 mg/kg, day 7, fed; read-out: Av. Cmax (plasma T)

{"compound-structure-string": "C[C@]12CC[C@H]3[C@@H](CCC4=CC(=O)CC[C@@]43C)[C@@H]1CC[C@@H]2O", "output-unit": "ng/mL", "Cmax": 13}

====

Test: Oral PK (plasma T) of TSX-002, TSX-007, TSX-009, unformulated T and TU in female beagle dogs, fasted or fed
Format: in vivo
Conditions: female, beagle, dog, plasma, po, 7.5 mg/kg, oral 7.5 mg/kg, day 1, fasted; read-out: Av. Tmax

{"molecule": "C[C@]12CC[C@H]3[C@@H](CCC4=CC(=O)CC[C@@]43C)[C@@H]1CC[C@@H]2O [Unformulated T, testosterone]", "Tmax": "2.17 h"}

====

Test: Oral PK (plasma T) of TSX-002, TSX-007, TSX-009, unformulated T and TU in female beagle dogs, fasted or fed
Assay type: in vivo
Settings: female, beagle, dog, plasma, po, 7.5 mg/kg, oral 7.5 mg/kg, day 1, fasted; read-out: Av. Cmax (plasma T)

{"compound-structure-string": "C[C@]12CC[C@H]3[C@@H](CCC4=CC(=O)CC[C@@]43C)[C@@H]1CC[C@@H]2O", "Cmax": "6.39 ng/mL"}

====

Experiment: Oral PK (plasma T) of TSX-002, TSX-007, TSX-009, unformulated T and TU in female beagle dogs, fasted or fed
Type: in vivo
Settings: female, beagle, dog, plasma, po, 7.5 mg/kg, oral 7.5 mg/kg, day 1, fed; read-out: Av. Cmax (plasma T)
parameter-measured: Cmax (ng/mL)

{"molecule": "C[C@]12CC[C@H]3[C@@H](CCC4=CC(=O)CC[C@@]43C)[C@@H]1CC[C@@H]2O [Unformulated T, testosterone]", "reported-value": 9.85}

====

Assay: Oral PK (plasma T) of TSX-002, TSX-007, TSX-009, unformulated T and TU in female beagle dogs, fasted or fed
Format: in vivo
Conditions: female, beagle, dog, plasma, po, 7.5 mg/kg, oral 7.5 mg/kg, day 7, fed; read-out: Av. Tmax
parameter-measured: Tmax (h)

{"compound-structure-string": "C[C@]12CC[C@H]3[C@@H](CCC4=CC(=O)CC[C@@]43C)[C@@H]1CC[C@@H]2O", "output-unit": "h", "reported-value": 3.5}

====

Experiment: Oral PK (plasma T) of TSX-002, TSX-007, TSX-009, unformulated T and TU in female beagle dogs, fasted or fed
Format: in vivo
Settings: female, beagle, dog, plasma, po, 7.5 mg/kg, oral 7.5 mg/kg, day 1, fed; read-out: Av. AUC (plasma T)
parameter-measured: AUC (ng·h/mL)

{"compound-structure-string": "C[C@]12CC[C@H]3[C@@H](CCC4=CC(=O)CC[C@@]43C)[C@@H]1CC[C@@H]2O", "reported-value": 36.8}

====

Assay: Oral PK (plasma T) of TSX-002, TSX-007, TSX-009, unformulated T and TU in female beagle dogs, fasted or fed
Assay type: in vivo
Conditions: female, beagle, dog, plasma, po, 7.5 mg/kg, oral 7.5 mg/kg, day 1, fed; read-out: Av. Tmax
parameter-measured: Tmax (h)

{"compound-structure-string": "C[C@]12CC[C@H]3[C@@H](CCC4=CC(=O)CC[C@@]43C)[C@@H]1CC[C@@H]2O", "parameter-measured": "Tmax", "output-unit": "h", "reported-value": 3.67}

====

Assay: Oral PK (plasma T) of TSX-002, TSX-007, TSX-009, unformulated T and TU in female beagle dogs, fasted or fed
Format: in vivo
Conditions: female, beagle, dog, plasma, po, 7.5 mg/kg, oral 7.5 mg/kg, day 7, fed; read-out: Av. AUC (plasma T)

{"compound-structure-string": "C[C@]12CC[C@H]3[C@@H](CCC4=CC(=O)CC[C@@]43C)[C@@H]1CC[C@@H]2O", "AUC (ng·h/mL)": 43}

====

Test: Oral PK (plasma T) of TSX-002, TSX-007, TSX-009, unformulated T and TU in female beagle dogs, fasted or fed
Assay type: in vivo
Conditions: female, beagle, dog, plasma, po, 7.5 mg/kg, oral 7.5 mg/kg, day 1, fasted; read-out: Av. AUC (plasma T)

{"compound-structure-string": "C[C@]12CC[C@H]3[C@@H](CCC4=CC(=O)CC[C@@]43C)[C@@H]1CC[C@@H]2O", "AUC / ng·h/mL": 28.7}
